# target: Phosphoserine phosphatase SerB2 (Mycobacterium tuberculosis) (UniProt O53289)
# Sequence (O53289 whole entry): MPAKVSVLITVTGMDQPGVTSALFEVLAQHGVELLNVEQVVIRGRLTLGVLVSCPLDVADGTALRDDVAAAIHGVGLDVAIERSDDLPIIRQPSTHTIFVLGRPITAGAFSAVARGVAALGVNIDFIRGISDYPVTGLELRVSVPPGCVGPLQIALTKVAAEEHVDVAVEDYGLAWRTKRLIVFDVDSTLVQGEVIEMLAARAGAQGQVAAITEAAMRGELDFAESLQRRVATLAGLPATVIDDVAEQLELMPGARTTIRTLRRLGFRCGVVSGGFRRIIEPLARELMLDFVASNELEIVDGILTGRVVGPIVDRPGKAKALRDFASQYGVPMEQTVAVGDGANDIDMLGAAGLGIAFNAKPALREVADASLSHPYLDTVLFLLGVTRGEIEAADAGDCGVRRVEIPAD
# assayOverview: Binding affinity to Mycobacterium tuberculosis SerB2 expressed in Escherichia coli BL21 (DE3) cells assessed as protein destabilization at 4 mM by differential scanning fluorimetry
Calls of active or inactive are those of the source. No cut-off for these calls is given here.

{"molSmiles": "O=C(O)c1cc(O)ccn1", "target": "Phosphoserine phosphatase SerB2 (Mycobacterium tuberculosis) (UniProt O53289)", "Activity": "Active"}
{"molSmiles": "O=C(NO)Nc1ccc(Cl)cc1Cl", "target": "Phosphoserine phosphatase SerB2 (Mycobacterium tuberculosis) (UniProt O53289)", "Activity": "Active"}
{"molSmiles": "c1ccc(-c2c[nH]cn2)cc1", "target": "Phosphoserine phosphatase SerB2 (Mycobacterium tuberculosis) (UniProt O53289)", "Activity": "Active"}
{"molSmiles": "Nc1ccncc1", "target": "Phosphoserine phosphatase SerB2 (Mycobacterium tuberculosis) (UniProt O53289)", "Activity": "Active"}
